test system: SKCaR; test: FURA 2 based assay of SKCaR activation in transfected HEK cells; assay type: cell-based, dogfish shark (Squalus acanthias); settings: depending on the extracellular concentration of NaCl; read-out: half maximal activation of SKCaR by extracellular Ca2+
pEC50: −log10 of the molar value.
Measurement Kind: pEC50

**Query** Item [Ca+2] has what recorded pEC50?
**Result** 1.82 to 3.00

###

test system: SKCaR; assay: FURA 2 based assay of SKCaR activation in transfected HEK cells; assay type: cell-based, dogfish shark (Squalus acanthias); conditions: extracellular NaCl 550 mM; read-out: EC50 for Mg2+
Measurement Kind: EC50

**Query** Item [Mg+2] has what recorded EC50?
**Result** ~80 mM
